- TARGET OF ASSAY: c-KIT T670I kinase (Homo sapiens, UniProt P10721, T670I)
- Construct: The construct contains residues T544-V976 of cKit; GST (N); TEV cleavage site (internal)
- Sequence (P10721 544-976 T670I): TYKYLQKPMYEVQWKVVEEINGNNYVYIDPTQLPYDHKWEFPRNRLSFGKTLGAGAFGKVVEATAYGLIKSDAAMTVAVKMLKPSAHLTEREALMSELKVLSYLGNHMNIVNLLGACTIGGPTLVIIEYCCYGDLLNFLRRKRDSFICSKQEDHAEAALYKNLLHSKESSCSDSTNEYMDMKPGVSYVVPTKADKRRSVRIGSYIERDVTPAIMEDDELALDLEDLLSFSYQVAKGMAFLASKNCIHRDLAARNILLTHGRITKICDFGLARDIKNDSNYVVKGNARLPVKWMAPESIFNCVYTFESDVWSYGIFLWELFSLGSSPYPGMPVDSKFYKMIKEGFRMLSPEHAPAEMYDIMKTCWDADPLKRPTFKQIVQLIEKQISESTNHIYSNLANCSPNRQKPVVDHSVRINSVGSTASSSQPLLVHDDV
- TEST DESCRIPTION: c-KIT T670I kinase assay
- EXPERIMENTAL PARAMETERS: enzymatic assay
# IC50 listing for each entry below

The cases that follow already have their IC50 on record.
INSERT INTO assay_data (molecule, quantity, result) VALUES
  ('CCn1c(=O)c(-c2cc(NC(=O)Nc3ccccc3)c(F)cc2Cl)cc2cnc(NC(=O)CC#N)cc21 [Example 65]', 'IC50', '10 to 100 nM'),
  ('CCn1c(=O)c(-c2cc(NC(=O)Nc3ccc(F)c(CN4CCN(C)CC4)c3)c(F)cc2Cl)cc2cnc(NC)cc21 [Example 87]', 'IC50', '10 to 100 nM'),
  ('CNc1cc2c(cn1)cc(-c1cc(NC(=O)Nc3ccccc3)c(F)cc1Br)c(=O)n2C [Example 56]', 'IC50', '100 to 1000 nM');

Now consider a different molecule.
Query CCn1c(=O)c(-c2cc(NC(=O)Nc3ccccc3F)c(F)cc2C)cc2cnc(NC)cc21 [Example 38] yields IC50 of 100 to 1000 nM

###

# IC50 listing for each entry below
- TARGET OF ASSAY: c-KIT T670I kinase (Homo sapiens, UniProt P10721, T670I)
- Construct: The construct contains residues T544-V976 of cKit; GST (N); TEV cleavage site (internal)
- TEST DESCRIPTION: c-KIT T670I kinase assay
- EXPERIMENTAL PARAMETERS: enzymatic assay

The cases that follow already have their IC50 on record.
INSERT INTO results (molecule, quantity, result) VALUES
  ('CCn1c(=O)c(-c2cc(NC(=O)Nc3ccc(F)c(CN4CCN(C)CC4)c3)c(F)cc2C)cc2cnc(NC)cc21 [Example 89]', 'IC50', '10 to 100 nM'),
  ('CCn1c(=O)c(-c2cc(NC(=O)Nc3ccccc3)c(F)cc2Cl)cc2cnc(NCCCOC)cc21 [Example 39]', 'IC50', '10 to 100 nM');

Now consider a different molecule.
Query CCn1c(=O)c(-c2cc(NC(=O)Nc3ccc(F)c(CN4CCOCC4)c3)c(F)cc2Cl)cc2cnc(NC)cc21 [Example 95] yields IC50 of 10 to 100 nM

###

- TARGET OF ASSAY: c-KIT V654A kinase (Homo sapiens, UniProt P10721, V654A)
- Construct: residues T544-V976 with N-terminal GST fusion
- Sequence (P10721 544-976 V654A): as the sequence (P10721 544-976 T670I) above, with V111A, I127T counted along it
- TEST DESCRIPTION: c-KIT V654A Kinase Assay
- EXPERIMENTAL PARAMETERS: enzymatic assay, ATP 200 µM
# IC50 listing for each entry below

INSERT INTO measurements (compound, result) VALUES
  ('CCn1c(=O)c(-c2cc(NC(=O)Nc3cc(F)ccc3F)c(F)cc2C)cc2cnc(NC)cc21 [Example 61]', '10 to 100 nM'),
  ('CNc1cc2c(cn1)cc(-c1cc(NC(=O)Nc3ccccc3)c(F)cc1Cl)c(=O)n2C(C)C [Example 22]', '10 to 100 nM'),
  ('CCn1c(=O)c(-c2cc(NC(=O)Nc3ccc(F)c(CN4CCN(C)CC4)c3)c(F)cc2Cl)cc2cnc(NC)cc21 [Example 87]', '100 to 1000 nM');

Query CCn1c(=O)c(-c2cc(NC(=O)Nc3cccc(F)c3)c(F)cc2Cl)cc2cnc(N)cc21 [Example 20] yields IC50 of 10 to 100 nM

Query CCn1c(=O)c(-c2cc(NC(=O)Nc3cc(F)cc(F)c3)c(F)cc2Cl)cc2cnc(NC(C)=O)cc21 [Example 67] yields IC50 of 10 to 100 nM
